# reported cAMP release, % activity with respect to control, at 1 nM; entries follow
target: human GLP-1 receptor (human, UniProt P43220 24-463); experiment: cell-based or functional assay
Where no end group is shown, it is not given here. [ ]: non-standard residue; d: D form. Bip(2'-Et-4'-OMe) = CCc1cc(OC)ccc1-c1ccc(C[C@H](N)C(=O)O)cc1; αMePhe(2,6-F2) = C[C@](N)(Cc1c(F)cccc1F)C(=O)O; αMePhe(2-F) = C[C@](N)(Cc1ccccc1F)C(=O)O; αMeBip(OMe) = alpha-methylated Bip(OMe); hhPhe = N[C@@H](CCCc1ccccc1)C(=O)O; αMeD = C[C@](N)(CC(=O)O)C(=O)O; αMeP = C[C@@]1(C(=O)O)CCCN1; αMeAPPA = not defined here; αMeS = C[C@](N)(CO)C(=O)O; Ac3c = NC1(C(=O)O)CC1
READOUT_LABEL: cAMP release, % activity with respect to control, at 1 nM

# BINDER, RESULT
measured = [
    ("VH[αMeP]QGT[αMePhe(2-F)]T[αMeS][αMeD][Bip(2'-Et-4'-OMe)][αMeAPPA] (not fully specified (C-terminus); reading uncertain) [Seq. ID. No. 118]", "99 % of control"),
    ("VHAQGT[αMePhe(2-F)]TSD[αMeBip(OMe)][αMeAPPA] (not fully specified (C-terminus); printed as VHAQGT-(αMe-2FPhe)-TSD-(αMe-Bip(OMe))-(αMe-APPA); reading uncertain) [Seq. ID. No. 142]", "60 % of control"),
    ("VH[Ac3c]EGTFTSD[αMeBip(OMe)][hhPhe] (not fully specified (C-terminus)) [Seq. ID. No. 16]", "99 % of control"),
    ("VHAQGT[αMePhe(2,6-F2)]T[αMeS][αMeD][Bip(2'-Et-4'-OMe)][αMeAPPA] (not fully specified (C-terminus); reading uncertain) [Seq. ID. No. 124]", "39 % of control"),
]
